experiment: Absorption and fluorescence photophysical characterization in organic solvents; format: physicochemical; conditions: methanol (MeOH)
quantity_kind: emission maximum (λem) (nm)
Reply numerically in nm, unit not repeated.

Query: What value of emission maximum (λem) has been recorded for this entry: CC1(C)C(=CC2=C(N)C(=CC3=[N+](CCCc4ccccc4)c4ccccc4C3(C)C)C2=O)N(CCCc2ccccc2)c2ccccc21.[I-]
Result: 652

Query: What would you report for CC1(C)C(=CC2=C([O-])C(=CC3=[N+](CCCc4ccccc4)c4ccccc4C3(C)C)C2=O)N(CCCc2ccccc2)c2ccccc21 ?
Result: 644

Query: What would you report for CNC1=C(C=C2N(CCCc3ccccc3)c3ccccc3C2(C)C)C(=O)C1=CC1=[N+](CCCc2ccccc2)c2ccccc2C1(C)C.[I-] ?
Result: 661

Query: What would you report for CC1(C)C(=CC2=C(NCc3ccc4ccc5cccc6ccc3c4c56)C(=CC3=[N+](CCCc4ccccc4)c4ccccc4C3(C)C)C2=O)N(CCCc2ccccc2)c2ccccc21.[I-] ?
Result: 663
